Data credit: the Deep4Chem optical property database

- assay_notes: solvent given as SMILES
- assay_setup: in Cc1ccccc1
Please respond with Y when measured emission maximum is strictly beneath 500 nm, and with N in all other cases.

Prompt line: Take the compound `CCCCOC(=O)c1cc(Cl)c2c3c(Cl)cc4c5c(cc(Cl)c(c6c(Cl)cc(C(=O)OCCCC)c1c26)c53)C(=O)N(c1c(C(C)C)cccc1C(C)C)C4=O` and say whether its emission maximum is less than 500 nm.
Response line: N

Prompt line: Thanks! And `CC(C)(C)c1ccc(C2=CC(c3ccccc3)=[N+]3C2=Nc2c(-c4ccc(C(C)(C)C)cc4)cc(-c4ccccc4)n2[B-]3(F)F)cc1` ?
Response line: N

Prompt line: Thanks! And `Fc1c(F)c(-n2c3ccccc3c3ccccc32)c(F)c(F)c1/C=C/C(=C(c1ccccc1)c1ccccc1)c1ccccc1` ?
Response line: Y

Prompt line: Thanks! And `FC(F)(F)c1ccc(-c2c3cccc4c5cccc6c(-c7ccc(C(F)(F)F)cc7)c7cccc8c9cccc2c9c(c34)c(c65)c78)cc1` ?
Response line: N

Prompt line: Thanks! And `CCCCOC(=O)c1cc(Oc2ccc(C(C)(C)C)cc2)c2c3c(Cl)cc4c5c(cc(Cl)c(c6c(Oc7ccc(C(C)(C)C)cc7)cc(C(=O)OCCCC)c1c26)c53)C(=O)N(c1c(C(C)C)cccc1C(C)C)C4=O` ?
Response line: N

Prompt line: Thanks! And `CCN(CC)c1ccc(/C=C/C(=O)c2c(O)cc(C)oc2=O)cc1` ?
Response line: N

Prompt line: Thanks! And `Cc1cc(C)c2c(c1)c1cc(C)cc(C)c1n2-c1ccc2c(c1)Sc1cc3c(cc1B2c1c(C(C)C)cc(C(C)C)cc1C(C)C)B(c1c(C(C)C)cc(C(C)C)cc1C(C)C)c1ccccc1S3` ?
Response line: Y

Prompt line: Thanks! And `Fc1cc(-c2nc(-c3ccccc3)nc(-c3ccccc3)n2)ccc1-n1c2ccccc2c2c3c(ccc21)C1(c2ccccc2-c2ccccc21)c1ccccc1-3` ?
Response line: Y

Prompt line: Thanks! And `COc1ccc2c3ccc(OC)cc3n(-c3ccc(-c4nnc(-c5c(C(C)C)cc(C(C)C)cc5C(C)C)o4)cc3)c2c1` ?
Response line: Y

Prompt line: Thanks! And CC1=CC(C)=[N+]2C1=C(c1ccc(C(=O)OC3C[C@@H]4CC[C@]3(C)C4(C)C)cc1)c1c(C)cc(C)n1[B-]2(F)F (some centres not stated) ?
Response line: N

Prompt line: Thanks! And `CCCCCCCCN1c2ccccc2Sc2cc(/C=C/c3ccc(N(c4ccc(/C=C/c5ccc6c(c5)Sc5ccccc5N6CCCCCCCC)cc4)c4ccc(/C=C/c5ccc(/C=C/c6ccc(N(c7ccc(/C=C/c8ccc9c(c8)Sc8ccccc8N9CCCCCCCC)cc7)c7ccc(/C=C/c8ccc9c(c8)Sc8ccccc8N9CCCCCCCC)cc7)cc6)c6nsnc56)cc4)cc3)ccc21` ?
Response line: N
